Origin of measurements: patent US20220402980A1

Readings of Ki for the listed binders
molecular target: T1, recombinant human αvβ6 extracellular domain (R&D Systems) (human, UniProt P06756 31-992; P18564 22-709); experiment: competitive binding assay on αvβ6-coated plates, isoDGR/STV-HRP probe
T1 construct: extracellular domain; Bought; also called recombinant extracellular αvβ6; purified αvβ6
T1 sequence (P06756 31-992, chain 1 of 2): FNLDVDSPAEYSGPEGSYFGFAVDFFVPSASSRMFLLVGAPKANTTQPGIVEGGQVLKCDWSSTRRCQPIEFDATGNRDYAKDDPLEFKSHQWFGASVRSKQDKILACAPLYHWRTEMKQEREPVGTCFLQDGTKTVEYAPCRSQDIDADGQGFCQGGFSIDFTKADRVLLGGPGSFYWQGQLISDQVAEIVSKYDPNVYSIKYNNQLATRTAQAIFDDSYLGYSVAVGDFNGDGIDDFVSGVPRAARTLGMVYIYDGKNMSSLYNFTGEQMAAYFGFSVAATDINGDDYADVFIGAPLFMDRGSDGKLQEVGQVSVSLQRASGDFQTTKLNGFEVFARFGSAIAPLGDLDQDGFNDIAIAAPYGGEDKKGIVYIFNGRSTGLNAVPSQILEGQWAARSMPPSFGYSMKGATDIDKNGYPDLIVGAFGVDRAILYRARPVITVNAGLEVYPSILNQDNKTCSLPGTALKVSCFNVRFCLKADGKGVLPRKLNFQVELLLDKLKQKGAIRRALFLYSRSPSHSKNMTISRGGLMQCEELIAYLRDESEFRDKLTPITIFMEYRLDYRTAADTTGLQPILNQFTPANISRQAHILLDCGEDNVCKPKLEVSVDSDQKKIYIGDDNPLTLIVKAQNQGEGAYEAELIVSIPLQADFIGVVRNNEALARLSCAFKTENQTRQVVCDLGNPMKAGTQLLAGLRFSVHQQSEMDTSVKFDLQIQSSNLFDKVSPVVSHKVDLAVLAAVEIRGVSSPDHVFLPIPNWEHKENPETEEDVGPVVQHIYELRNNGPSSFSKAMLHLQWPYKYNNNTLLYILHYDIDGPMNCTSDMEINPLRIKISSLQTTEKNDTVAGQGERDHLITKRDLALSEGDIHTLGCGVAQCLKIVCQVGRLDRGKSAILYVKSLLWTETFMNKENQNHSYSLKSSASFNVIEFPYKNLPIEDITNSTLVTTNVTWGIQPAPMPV
T1 sequence (P18564 22-709, chain 2 of 2): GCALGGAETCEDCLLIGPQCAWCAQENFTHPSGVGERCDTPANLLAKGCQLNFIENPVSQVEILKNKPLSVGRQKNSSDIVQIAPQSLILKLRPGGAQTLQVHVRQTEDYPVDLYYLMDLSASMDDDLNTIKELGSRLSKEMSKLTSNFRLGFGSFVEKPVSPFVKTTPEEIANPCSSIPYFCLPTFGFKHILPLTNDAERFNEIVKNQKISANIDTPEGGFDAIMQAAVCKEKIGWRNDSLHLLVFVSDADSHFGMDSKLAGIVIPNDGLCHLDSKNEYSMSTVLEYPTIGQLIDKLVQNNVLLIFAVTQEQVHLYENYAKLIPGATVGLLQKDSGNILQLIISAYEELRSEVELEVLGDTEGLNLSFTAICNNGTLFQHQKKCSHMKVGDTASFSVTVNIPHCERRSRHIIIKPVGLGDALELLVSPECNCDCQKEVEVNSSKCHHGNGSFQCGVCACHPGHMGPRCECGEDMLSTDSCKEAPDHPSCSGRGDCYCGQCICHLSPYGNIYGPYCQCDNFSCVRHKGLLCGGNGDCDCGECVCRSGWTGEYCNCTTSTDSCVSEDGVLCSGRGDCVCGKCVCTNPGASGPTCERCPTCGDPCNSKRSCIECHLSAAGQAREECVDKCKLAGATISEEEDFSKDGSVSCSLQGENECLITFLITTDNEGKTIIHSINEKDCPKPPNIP
Where no end group is shown, it is not given here.
Put your answer as a value accompanied by its unit after it.

binder	test_result
FETLRGDERILSILR-NH2 (Made by Fmoc-SPPS on a Rink-amide resin; also called compound 3) [peptide 3]	277 nM

Here is another binder to look at.
Ask: Fill in: Ki of FETLRGDERILSILRHQNLLKELQD (Synthetic peptide bought from Biomatik; no terminal modification is stated for it; also called compound 1) [peptide 1 (CgA-derived peptide, residues 39-63), synthetic] is ___
Reply: 15.5 nM
